Target: CBL-B (Homo sapiens)
Construct: endogenous in cells; host or cells: Jurkat HiBit-IL2 reporter cells, C-CBL knocked out by CRISPR
Sequence (Q13191 whole entry): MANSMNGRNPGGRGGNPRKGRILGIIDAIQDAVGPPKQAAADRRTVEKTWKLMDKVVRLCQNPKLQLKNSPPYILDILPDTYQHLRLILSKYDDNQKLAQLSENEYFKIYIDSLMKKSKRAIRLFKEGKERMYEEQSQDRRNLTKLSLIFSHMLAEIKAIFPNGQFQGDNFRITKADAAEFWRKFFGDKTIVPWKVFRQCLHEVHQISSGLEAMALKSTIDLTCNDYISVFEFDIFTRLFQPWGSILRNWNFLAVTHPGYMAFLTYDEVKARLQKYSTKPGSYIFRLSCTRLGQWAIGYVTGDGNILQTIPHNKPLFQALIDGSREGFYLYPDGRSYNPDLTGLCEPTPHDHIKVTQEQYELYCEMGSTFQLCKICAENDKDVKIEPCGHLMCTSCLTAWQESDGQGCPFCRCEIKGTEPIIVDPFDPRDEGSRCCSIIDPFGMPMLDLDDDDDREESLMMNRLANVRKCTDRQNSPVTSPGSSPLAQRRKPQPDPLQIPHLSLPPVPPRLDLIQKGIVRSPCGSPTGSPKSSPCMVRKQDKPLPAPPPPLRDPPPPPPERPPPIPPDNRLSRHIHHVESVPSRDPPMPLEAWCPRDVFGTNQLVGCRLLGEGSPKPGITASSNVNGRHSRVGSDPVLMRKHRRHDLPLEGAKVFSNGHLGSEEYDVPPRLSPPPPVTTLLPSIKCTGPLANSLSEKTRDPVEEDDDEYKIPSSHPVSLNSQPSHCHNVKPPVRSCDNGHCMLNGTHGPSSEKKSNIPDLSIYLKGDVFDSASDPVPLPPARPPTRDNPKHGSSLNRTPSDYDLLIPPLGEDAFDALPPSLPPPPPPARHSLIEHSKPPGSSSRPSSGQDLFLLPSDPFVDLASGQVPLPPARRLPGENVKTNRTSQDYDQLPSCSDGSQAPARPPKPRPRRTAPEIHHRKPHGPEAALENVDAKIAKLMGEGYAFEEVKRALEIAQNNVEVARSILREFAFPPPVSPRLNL
Test: Jurkat HiBit-IL2 assay (c-CBL KO), reporter cell line expressing CBL-B only
Assay type: cell-based
Settings: c-CBL KO (CBL-B only), anti-CD3/anti-CD28 stimulation 4 hours, geometric mean, Table 16a, read-out: C-CBL KO EC50 (nM) GMean
I'd appreciate it if you could supply log10 of EC50 values for the items below.
In plain terms, each number is the log10 of measured EC50 in nM.

Briefly, log10 of EC50 measured for C[C@@H](c1nc(C(F)(F)F)cc2c(-c3cccc(C4(Cc5nncn5C)COC4)c3)n[nH]c12)N1C[C@H](F)[C@@H](F)C1 (single isomer, unassigned) [Example D7] : 1.90

Briefly, log10 of EC50 measured for C[C@@H]1CCCN(Cc2nc(C(F)(F)F)cc3c(-c4cccc(C5(Cc6nncn6C)COC5)c4)n[nH]c23)C1 [Example C29] : 2.31

Briefly, log10 of EC50 measured for C[C@@H](c1nc(C(F)(F)F)cc2c(-c3cccc(C4(Cc5nncn5C)COC4)c3)n[nH]c12)N1CCC(F)(F)C1 (single isomer, unassigned) [Example D5] : 2.81

Briefly, log10 of EC50 measured for C[C@@H](N[C@@H]1CCC[C@@H]1O)c1nc(C(F)(F)F)cc2c(-c3cccc([C@H](c4nncn4C)C4CCC4)c3)n[nH]c12 (single isomer, unassigned) [Example D16] : 1.26

Briefly, log10 of EC50 measured for CC(NCC(C)(C)O)c1nc(C(F)(F)F)cc2c(-c3cccc([C@H](c4nncn4C)C4CCC4)c3)n[nH]c12 (single isomer, unassigned) [Example C45] : 1.15

Briefly, log10 of EC50 measured for C[C@H](c1nc(C(F)(F)F)cc2c(-c3cccc(C4(Cc5nncn5C)COC4)c3)n[nH]c12)N1C[C@H](F)[C@@H](F)C1 (single isomer, unassigned) [Example D8] : 2.78

Briefly, log10 of EC50 measured for C[C@@H](N[C@H]1CC[C@@H]1O)c1nc(C(F)(F)F)cc2c(-c3cccc([C@H](c4nncn4C)C4CCC4)c3)n[nH]c12 (single isomer, unassigned) [Example D22] : 0.70

Briefly, log10 of EC50 measured for C[C@@H](NC1CCCC1)c1nc(C(F)(F)F)cc2c(-c3cccc([C@H](c4nncn4C)C4CCC4)c3)n[nH]c12 (single isomer, unassigned) [Example C11] : 0.70

Briefly, log10 of EC50 measured for C[C@H](NC1CCCC1)c1nc(C(F)(F)F)cc2c(-c3cccc([C@H](c4nncn4C)C4CCC4)c3)n[nH]c12 (single isomer, unassigned) [Example C10] : 2.37
